Where a name gives a salt, the structure may show the parent alone.
observed.property: melting point

Task: melting point for Cc1ncc(-c2ccc(C(F)(F)F)cn2)c(NC2CCCC2)n1 ?
Result: 130 to 133 °C

Task: melting point for Cc1ncc(-c2ccccc2C(F)(F)F)c(NC2CCCC2)n1 ?
Result: 80 to 84 °C

Task: melting point for Cc1ncc2c3ccc(C(F)(F)F)cc3n(C3CCCC3)c2n1 ?
Result: 133 to 134 °C

Task: melting point for Cc1ccc(-c2c(NC3CCCC3)nc(C)nc2NC2CCCC2)cc1 ?
Result: 115 to 128 °C

Task: melting point for Cc1ncc2c3ccc(C(F)(F)F)cc3c(=O)n(C3CCCC3)c2n1 ?
Result: 137 to 141 °C

Task: melting point for Cc1ncc(-c2ccc(C(F)(F)F)cc2)c(NC2CCCCNC2=O)n1 (stereo not shown) ?
Result: 191 to 196 °C

Task: melting point for Cc1ncc(-c2ccc(C(=O)O)cc2)c(NC2CCCC2)n1 ?
Result: 252 to 255 °C

Task: melting point for Cc1ncc(-c2ccc(C(F)(F)F)cc2C(F)(F)F)c(NC2CCCC2)n1 ?
Result: 128 to 132 °C

Task: melting point for Cc1ncc(-c2cnc(C(F)(F)F)nc2)c(NC2CCCC2)n1 (as salt: hydrochloride) ?
Result: 249 to 254 °C

Task: melting point for Cc1ncc(-c2ccc(C#N)cc2)c(NC2CCCC2)n1 ?
Result: 176 to 180 °C

Task: melting point for Cc1ncc(-c2ccc(P(=O)(O)O)cc2)c(NC2CCCC2)n1 ?
Result: 254 to 259 °C

Task: melting point for Cc1cccc(-c2c(NC3CCCC3)nc(C)nc2NC2CCCC2)c1 ?
Result: 95 to 98 °C

Task: melting point for C#Cc1nc(C)nc(NC2CCCC2)c1-c1ccc(C(F)(F)F)cc1 ?
Result: 159 to 162 °C

Task: melting point for Cc1ncc(-c2ccc(Cl)cc2)c(NC2CCCC2)n1 ?
Result: 103 to 106 °C

Task: melting point for Cc1ncc(-c2ccc(C(N)=O)cc2)c(NC2CCCC2)n1 ?
Result: 226 to 228 °C

Task: melting point for COc1ccc(-c2cnc(C)nc2NC2CCCC2)cc1OC ?
Result: 143 to 145 °C

Task: melting point for Cc1ncc(-c2ccc([N+](=O)[O-])cc2)c(NC2CCCC2)n1 ?
Result: 185 to 188 °C

Task: melting point for Cc1ncc(-c2cc(C(F)(F)F)cc(C(F)(F)F)c2)c(NC2CCCC2)n1 ?
Result: 124 to 126 °C

Task: melting point for Cc1ncc(C#Cc2ccc(C(F)(F)F)cc2)c(NC2CCCC2)n1 ?
Result: 90 to 93 °C

Task: melting point for CC(=O)Nc1ccc(-c2cnc(C)nc2NC2CCCC2)cc1 ?
Result: 203 to 210 °C

Task: melting point for CCc1nc(NC2CCCC2)c(-c2ccccc2)c(NC2CCCC2)n1 ?
Result: 70 to 71 °C

Task: melting point for Cc1ncc(-c2ccc(C(F)(F)F)cc2Cl)c(NC2CCCC2)n1 ?
Result: 120 to 132 °C

Task: melting point for Cc1ncc(-c2ccc3nonc3c2)c(NC2CCCC2)n1 ?
Result: 165 to 167 °C

Task: melting point for Cc1ncc(-c2ccc(F)cc2)c(NC2CCCC2)n1 ?
Result: 83 to 86 °C

Task: melting point for Cc1ncc(-c2cccc(C(F)(F)F)c2)c(NC2CCCC2)n1 ?
Result: 105 to 108 °C
